System: aqueous buffer solubility, UV absorbance, 18 h equilibrium
Test: aqueous buffer solubility of compounds, late-stage follow-up, ADME assay, biophysical, UV absorbance, pH 5.0, 6.2, 7.4 (AID 1615)
Settings: at 300 µM; stronger effect = higher value
measure: solubility

Request: # query: solubility of entry C=CCn1c(SCC(=O)c2ccc(O)c(O)c2)nnc1-c1ccccc1OC
Response: 18 µg/mL

----------
System: aqueous buffer solubility, UV absorbance, 18 h equilibrium
Assay: aqueous buffer solubility of compounds, late-stage follow-up, ADME assay, biophysical, UV absorbance, pH 5.0, 6.2, 7.4 (AID 1615)
Details: measured here: solubility at pH 5.0; at 300 µM; stronger effect = higher value
measure: solubility (µg/mL)
Please state the figure in µg/mL; there is no need to write the unit.

Request: # query: solubility of entry C=CCn1c(SCC(=O)c2ccc(O)c(O)c2)nnc1-c1ccccc1OC
Response: 8.4

----------
Test system: aqueous buffer solubility, UV absorbance, 18 h equilibrium
Experiment: aqueous buffer solubility of compounds, late-stage follow-up, ADME assay, biophysical, UV absorbance, pH 5.0, 6.2, 7.4 (AID 1615)
Conditions: measured here: solubility at pH 6.2; at 300 µM; stronger effect = higher value
measure: solubility (µg/mL)
Please state the figure in µg/mL; there is no need to write the unit.

Request: # query: solubility of entry C=CCn1c(SCC(=O)c2ccc(O)c(O)c2)nnc1-c1ccccc1OC
Response: 8.4
